The measurements presented in this section are drawn from PubChem BioAssay AID1259407.

# System: CCRIS mutagenicity, Ames/micronucleus/aberration tests
# method_summary: CCRIS mutagenicity studies
# experimental_setup: Test System: AMES SALMONELLA TYPHIMURIUM; Strain/Indicator: TA1537; Metabolic Activation: NONE; Method: STANDARD PLATE
Calls of active or inactive are those of the source. How the calls were made is not given here.
# valid calls are true for active, false for inactive; nothing else

Nc1cc2c(cc1[N+](=O)[O-])[nH]c1ccccc12: true
C=C(C)C(=O)OCCCCCCOC(=O)C(=C)C: false
CC(CN1CC(=O)NC(=O)C1)N1CC(=O)NC(=O)C1 (stereo not drawn): false

(Q) Hi, do you know how "Oc1ccc(Nc2c3ccccc3nc3ccccc23)cc1" came out in this test?
(A) true

(Q) Hi, do you know how "C=C[Si](C)(C)CCl" came out in this test?
(A) false

(Q) Hi, do you know how "CC1=CC(=O)C=C2CC[C@@H]3[C@H](CC[C@]4(C)C(=O)CC[C@@H]34)[C@@]12C" came out in this test?
(A) false

(Q) Hi, do you know how "Nc1c(O)cccc1[N+](=O)[O-]" came out in this test?
(A) false

(Q) Hi, do you know how "O=C(O)CN(CC(=O)O)CC(=O)O" came out in this test?
(A) false

(Q) Hi, do you know how "CC/C(C)=N\O" came out in this test?
(A) false

(Q) Hi, do you know how "Cc1c2ccncc2c(C)c2c1[nH]c1ccc(N)cc12" came out in this test?
(A) true

(Q) Hi, do you know how "Nc1ccc2c(c1)C(=O)c1ccc(N)cc1C2=O" came out in this test?
(A) false

(Q) Hi, do you know how "C/C(=C(/OCCOc1ccc(Cl)cc1)c1ccc(Cl)cc1Cl)n1ccnc1" came out in this test?
(A) false

(Q) Hi, do you know how "CC(C)CC(=O)Nc1snc2ccccc12" came out in this test?
(A) false
